- targetOrTestSystem: human rCR3 (integrin αMβ2) (Homo sapiens, UniProt P11215)
- Construct: purchased R&D Systems
- assayInfo: Surface plasmon resonance, immobilized human rCR3
- Type: binding
- conditionDetails: synthetic glycans; NCDI = no interaction at any concentration between 0.0078 μM and 2 μM; read-out: KD, rCR3
measuredProperty: pKd
Formally, pKd is defined as -log10 of the concentration c, with c in mol/L.

Field request: pKd | item: OCC1OC(OC2C(O)C(CO)OC(OC3C(CO)OC(OC4C(O)C(O)OC(CO)C4O)C(O)C3O)C2O)C(O)C(O)C1O (stereo not shown)
7.58

* * *

- targetOrTestSystem: human rI-domain (Homo sapiens, UniProt P11215)
- Construct: Recombinant human and mouse I-domain proteins were made and purified as previously described; made in house
- assayInfo: Surface plasmon resonance, immobilized human rI-domain
- Type: binding
measuredProperty: pKd
Just the number, please; pKd means minus log10 of the concentration in mol/L.

Which pKd value is on record for OCC1OC(OC2C(O)C(O)OC(CO)C2O)C(O)C(O)C1O (stereo not shown) [Galactobiose] ?
6.64

Source of measurements: paper PMC7064771
